For each record, write down the corresponding phosphorylation enrichment.
Measured On: Hck (UniProt P08631)
Sequence (P08631 whole entry, looked up): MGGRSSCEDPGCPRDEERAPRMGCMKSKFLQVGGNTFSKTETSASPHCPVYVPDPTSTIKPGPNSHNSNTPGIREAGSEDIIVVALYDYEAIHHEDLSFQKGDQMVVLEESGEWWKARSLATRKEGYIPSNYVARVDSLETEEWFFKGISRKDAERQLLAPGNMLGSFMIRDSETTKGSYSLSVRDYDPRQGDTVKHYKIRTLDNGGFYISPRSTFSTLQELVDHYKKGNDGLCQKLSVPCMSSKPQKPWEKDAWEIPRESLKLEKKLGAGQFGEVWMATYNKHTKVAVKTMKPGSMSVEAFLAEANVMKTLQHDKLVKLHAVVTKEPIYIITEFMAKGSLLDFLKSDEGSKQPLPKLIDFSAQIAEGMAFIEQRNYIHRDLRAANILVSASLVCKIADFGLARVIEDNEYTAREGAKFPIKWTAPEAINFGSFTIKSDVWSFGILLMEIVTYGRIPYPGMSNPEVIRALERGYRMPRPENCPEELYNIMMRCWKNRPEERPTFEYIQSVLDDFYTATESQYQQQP
Experiment Notes: phosphorylation enrichment, bacterial display (enrichment ratio); higher = better substrate or ligand; peptides without Tyr show the background;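 also: 11-residue human phosphosite peptides and single-mutation variants displayed on the E. coli surface, counted by deep sequencing, each peptide's frequency after selection divided by its frequency in the unselected input library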;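 also: frequency after pTyr selection over input frequency; kinase dosed for 20-30% of maximal phosphorylation in three min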
Reply with the value as a number alone.

Identify measured phosphorylation enrichment associated with YYHCTYKKRMI [CLEC12A_Y242]
0.78

Write down phosphorylation enrichment measured for item DTCPPYVLSQV [GJB4_Y237_G242V]
0.606

// Input: SGPRRYNIAAL [TTR_Y125_T126N] . Output its phosphorylation enrichment only.
0.43

Output measured phosphorylation enrichment for this item: HHTNEYEFDEL [TGM1_Y134_D132N_YF]
0.719

Please report phosphorylation enrichment for the following sequence: NTVDYYDLYGG [PTPN11_Y63_G60V]
5.68

Give phosphorylation enrichment for LSIQTYSALNF [DES_Y423_P419S]
6.9

Output measured phosphorylation enrichment for this item: FLRTGYSVPFG [TGM1_Y370_YF]
0.461

====

Measured On: FGFR3 (UniProt P22607)
Sequence (P22607 whole entry, looked up): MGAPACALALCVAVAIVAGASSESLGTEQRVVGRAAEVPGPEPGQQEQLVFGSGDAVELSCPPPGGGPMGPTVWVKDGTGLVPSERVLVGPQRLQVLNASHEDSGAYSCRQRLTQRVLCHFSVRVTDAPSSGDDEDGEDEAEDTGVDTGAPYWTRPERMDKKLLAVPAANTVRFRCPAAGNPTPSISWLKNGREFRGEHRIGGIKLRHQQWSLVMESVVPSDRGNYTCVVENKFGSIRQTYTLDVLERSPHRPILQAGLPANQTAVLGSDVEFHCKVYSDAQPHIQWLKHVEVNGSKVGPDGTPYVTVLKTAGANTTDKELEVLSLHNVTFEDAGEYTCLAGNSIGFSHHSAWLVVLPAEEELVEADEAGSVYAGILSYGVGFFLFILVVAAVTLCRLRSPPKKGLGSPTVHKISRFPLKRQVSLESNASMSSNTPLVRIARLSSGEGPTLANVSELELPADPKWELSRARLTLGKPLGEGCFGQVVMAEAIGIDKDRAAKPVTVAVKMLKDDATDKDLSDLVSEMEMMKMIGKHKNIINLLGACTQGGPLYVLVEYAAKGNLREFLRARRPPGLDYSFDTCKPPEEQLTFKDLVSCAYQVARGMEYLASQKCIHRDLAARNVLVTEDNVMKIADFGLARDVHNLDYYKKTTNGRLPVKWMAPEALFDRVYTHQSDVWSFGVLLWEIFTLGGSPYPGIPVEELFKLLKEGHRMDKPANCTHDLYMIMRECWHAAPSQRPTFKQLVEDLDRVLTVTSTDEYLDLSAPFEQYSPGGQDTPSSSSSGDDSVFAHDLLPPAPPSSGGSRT
Experiment Notes: phosphorylation enrichment, bacterial display (enrichment ratio); higher = better substrate or ligand; peptides without Tyr show the background
We use 0.8 as the dividing line for phosphorylation enrichment: on or above the line is yes, below is no.

Is it the case that HESEIYCKVCF [CSRP3_Y57_YF] has phosphorylation enrichment reaching or exceeding 0.8?
yes

Textbook exercise: given the entry TIQIMFGCDVG [HLA-A_Y123_Y123F] , state whether its phosphorylation enrichment is greater than or equal to 0.8.
yes

Could you tell me if the measured phosphorylation enrichment of VEDPEYAVTQL [STOML2_Y124] reaches 0.8 or more?
no

Dear colleague, could you confirm whether EKLQKYFRKNP [EHHADH_Y682_Q685K_YF] has phosphorylation enrichment at or above 0.8?
no

Determine whether measured phosphorylation enrichment meets or exceeds 0.8 for HYECKYVINAI [MAOA_Y268]
yes

Would you say TENAGYYFRVS shows phosphorylation enrichment at minimum 0.8?
yes

Hi, just wondering whether LKSEMYQKLFK [RGS13_Y146_L150F] shows phosphorylation enrichment of 0.8 or higher.
yes

Hi, just wondering whether FEAMEYLESKQ [BTK_Y511_C506Y_YF] shows phosphorylation enrichment of 0.8 or higher.
yes

Does the sequence PMWHPYKADVT [TP53TG5_Y255_V257A] have recorded phosphorylation enrichment that is 0.8 or more?
no

Is phosphorylation enrichment for HNGVSYFINLC [IGF2R_Y2024_YF] at or above 0.8?
yes

Record HHTNEYEFDEL [TGM1_Y134_D132N_YF] ; criterion: phosphorylation enrichment no lower than 0.8. Met?
yes

# check: phosphorylation enrichment of IFKAAYFGVFD [SLC25A4_Y191_R188K_YF] is greater than or equal to 0.8
no

Could you verify whether the entry MKTISYETLIA [DOCK10_Y1350] shows phosphorylation enrichment of no less than 0.8?
no

Please indicate if the recorded phosphorylation enrichment for YADPYYDYEIE [ZC3H18_Y372] meets or exceeds 0.8.
yes

Is it the case that REIIAYQPFGK [PRKCG_Y529_P524R_YF] has phosphorylation enrichment reaching or exceeding 0.8?
no

Has ENRLDYGSAWA [AR_Y395_P392R] a recorded phosphorylation enrichment greater than or equal to 0.8?
no

Is reported phosphorylation enrichment greater than or equal to 0.8 here: DPASAYADEVK [ETNPPL_Y189_S185P]
no

Is it the case that AEEKEYHAEGG [EGFR_Y869] has phosphorylation enrichment reaching or exceeding 0.8?
no

Determine whether this sequence has phosphorylation enrichment no lower than 0.8: AVRVFYRKCPH [EPHB2_Y194_R199H]
no

Evaluate CTTNHYNFMCN [TP53_Y234_I232N_YF] : phosphorylation enrichment at minimum 0.8?
no

Record LVPPRYVRSEI [PKP2_Y194_A195V] ; criterion: phosphorylation enrichment no lower than 0.8. Met?
no

I'd appreciate it if you could say whether KSDVVYTDWKK [ORM1_Y175] has phosphorylation enrichment at least equal to 0.8.
no

Could you verify whether the entry IENPQYFSDAC [NTRK1_Y496] shows phosphorylation enrichment of no less than 0.8?
yes

State whether the measured phosphorylation enrichment reaches 0.8, counting equality as reaching it, for ATHSRYRLNDF [CLDN14_Y233_G232R_YF]
no

Does the reported phosphorylation enrichment for PSQRCYVYYYS [PTEN_Y174_R173C] fall at or above the 0.8 mark?
yes

Reported phosphorylation enrichment reaches at least 0.8 for RELGEYALAEY [ALDH1A3_Y492] ?
no

Hi, just wondering whether FAKTQYPDVYA [CRX_Y63] shows phosphorylation enrichment of 0.8 or higher.
no

Has VIKDKYPQARF [APTX_Y209_K211Q_YF] a recorded phosphorylation enrichment greater than or equal to 0.8?
no

In plain terms: is recorded phosphorylation enrichment at least 0.8 for NGRTGYVLQPE [PLCG2_Y1036] ?
no

Is phosphorylation enrichment for HLSPEYKQNEI [GJB1_Y243_R238H] at or above 0.8?
no

Can MSRDVYSTDYY [NTRK2_Y702] be said to have phosphorylation enrichment at or above 0.8?
yes

Identify whether the reported phosphorylation enrichment of the following sequence is 0.8 or greater: KLLRLYAVVTR [LYN_Y306_V303L]
no

I'd appreciate it if you could say whether WGLCSYYETSK [MAGED2_Y448_R446C] has phosphorylation enrichment at least equal to 0.8.
yes

Determine whether this sequence has phosphorylation enrichment no lower than 0.8: SNNFIYKTLGV [FAM83B_Y639_YF]
no

# check: phosphorylation enrichment of QRMGTYGVRAA [ICAM2_Y260] is greater than or equal to 0.8
no

Entry RGFDTYFGFLL [ARSB_Y165_YF] : is its phosphorylation enrichment no less than 0.8?
yes

Test whether the sequence SGPRRYNIAAL [TTR_Y125_T126N] records phosphorylation enrichment of 0.8 or higher.
no

hey, is phosphorylation enrichment for this one >= 0.8? MNPPPYSQLLS [FGF23_Y154_F157L]
no

Can HLATEYVFSDF [PANX1_Y10_Q5H] be said to have phosphorylation enrichment at or above 0.8?
yes

Would you say VNNAVYGIDAM [EIF3J_Y143] shows phosphorylation enrichment at minimum 0.8?
no

Does HIILLYIFLKN [STXBP1_Y411_R406H] have a reported phosphorylation enrichment of at least 0.8?
yes

Kindly determine if phosphorylation enrichment recorded for GFAIVYGTIIL [GPR179_Y460] is above or exactly 0.8.
yes

Does the sequence PTTKTYLPHFD [HBA1_Y43_F44L] have recorded phosphorylation enrichment that is 0.8 or more?
no

Test whether the sequence PSPTRYSLSPS [RANBP2_Y785] records phosphorylation enrichment of 0.8 or higher.
no

Is phosphorylation enrichment at least 0.8? Consider IENKLYGTSDP [RET_Y1062_M1064T]
no

Dear colleague, could you confirm whether ASELGYVFQAI [UROD_Y133] has phosphorylation enrichment at or above 0.8?
no

State whether the measured phosphorylation enrichment reaches 0.8, counting equality as reaching it, for AEKPKYQISNI [TJP1_Y1602_N1605S]
no

I'd appreciate it if you could say whether AKKIKYFEGVS [PRKDC_Y682] has phosphorylation enrichment at least equal to 0.8.
no

Assess whether reported phosphorylation enrichment for SSMIDYNLLEK [MYOC_Y479_P481L] sits at 0.8 or higher.
no

Please indicate if the recorded phosphorylation enrichment for QGCGIYKDFFR [PLA2G2D_Y82_S80G_YF] meets or exceeds 0.8.
yes

Is phosphorylation enrichment at least 0.8? Consider DSNPIYSQIWS [FCRL3_Y662]
yes

Evaluate PLGVLYKVKVF [PTS_Y128_V124L_YF] : phosphorylation enrichment at minimum 0.8?
yes

Record QGQHWYSSSDT [CASP10_Y9_K14T] ; criterion: phosphorylation enrichment no lower than 0.8. Met?
yes

Quick check: does METKGYQSLPE [NR3C2_Y6_H7Q] have phosphorylation enrichment greater than or equal to 0.8?
no

Is the recorded value of phosphorylation enrichment equal to or greater than 0.8 for this sequence? YRDALYKSMVD [PHEX_Y250_F252S]
no

Does phosphorylation enrichment meet or surpass 0.8 for LNTFHHAGVSA [POLR2A_Y1109_Y1109H] ?
no
